# TESTED TARGET: T1, HLA-DQ2.5/secalin 2 peptide complex on Ba/F3 cells (human; rye)
# T1 construct: also called Ba/F3-HLA-DQ2.5/secalin 2 peptide
# ASSAY TEXT: FACS
READOUT: FIG. 30 FACS value (IC17=0, DQN0139bb=100)
# answer = number (no unit)

DQN0356bb (antibody, human IgG1, kappa, V domains shown, also called DQN0356Hb; DQN0356Lb) VH: QEQLVESGGGLVKPEGSLTLTCTASGFSFSSDYSVCWVRQAPGKGLEWIGCIYTGSDITYYASWAKGRFTISKTSSTTVTLQMTSLTAADTATWFCARSWNGYGGYADLWGPGTLVTVSS VL: AYDMAQTPASVEVAVGGTVTIKCQASQSIDNYLAWYQQKPGQPPKLLIYWASTLASGVSSRFKGSGSGTQFSLTISDLECADAATYYCQQYYSNSNVVNTFGGGTKVEIKR; 77.8

# context switch: different binder, same FIG. 30 FACS value (IC17=0, DQN0139bb=100)
Find the recorded FIG. 30 FACS value (IC17=0, DQN0139bb=100) belonging to DQN0333hh (antibody, human IgG1, kappa, V domains shown, also called DQN0333Lh) VH: QSVEESGGRLVMPGGSLTLTCTASGFSLSSYYMNWVRQAPGKGLEWIGVIYSTDITDYATWATGRFTISKTSTTVDLKMTSLTAADTATYFCARELSPTTSGYIAYLWGPGTLVTVSS VL: AYDMTQTPASVEVAVGGTVTIKCQASQSISSYLAWYQQKPGQPPKLLIYSASTLASGVPSRFKGSGSGTQFTLTVIDVQCDDAATYYCQQTYSGKNVINTFGGGTKVEIKR and report it. 106
